The reader will find reported inhibition values listed item by item below.
- assay_target: Ribosomal protein S6 kinase alpha-2 (Homo sapiens);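 further: reported value is the mean percent inhibition of RSK3, from the GSK PKIS screening panel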
- condition_notes: at 0.1 µM
Response body: numeric value in %, unit text excluded.

Here are 10 compounds together with their reported answers.
{"smiles_code": "O=C(O[C@H]1CN[C@H](C#Cc2cc3ncnc(Nc4ccc(OCc5cccc(F)c5)c(Cl)c4)c3s2)C1)N1CCOCC1", "inhibition, %": 2.72}
{"smiles_code": "COc1c(C(N)=O)cc(-c2ccc(Cl)cc2)cc1-c1ccc(S(N)(=O)=O)cc1", "inhibition, %": 2.4}
{"smiles_code": "CN1CCC(n2cnc(-c3ccc(F)cc3)c2-c2ccnc(NCCO)n2)CC1", "inhibition, %": 3.09}
{"smiles_code": "CNC(=O)c1ncccc1Nc1nc(Nc2cc3c(cc2OC)CCCN3C(=O)CN(C)C)nc2[nH]ccc12", "inhibition, %": 3.13}
{"smiles_code": "COc1ccc2ncn(-c3cc(O[C@H](C)c4ccccc4C(F)(F)F)c(C(N)=O)s3)c2c1", "inhibition, %": 0.69}
{"smiles_code": "COc1cccc(-n2ncc3c(N/N=C/c4ccc(C(=O)NCCN(C)C)cc4)ncnc32)c1", "inhibition, %": 1.89}
{"smiles_code": "CS(=O)(=O)Nc1ccc(-c2ccc3c(NC(=O)C4CC4)n[nH]c3c2)cc1", "inhibition, %": 0.73}
{"smiles_code": "NS(=O)(=O)c1cccc(N/C=C2\\C(=O)Nc3ccccc32)c1", "inhibition, %": 5.57}
{"smiles_code": "OCCCNc1nccc(-c2c(-c3ccc(F)cc3)nn3cc(C(F)(F)F)ccc23)n1", "inhibition, %": 1.69}
{"smiles_code": "COC(=O)Nc1nc2ccc(Oc3ccc(NC(=O)Nc4cc(C(F)(F)F)ccc4F)cc3)cc2s1", "inhibition, %": 3.19}

The reported inhibition of the compound COc1cc(N2CCN(C(C)C)CC2)ccc1Nc1nc(Nc2cccc3ncccc23)c2cc[nH]c2n1 was 1.37

The reported inhibition of the compound Fc1cccc(COc2ccc(Nc3ncncc3C#Cc3ccccc3)cc2Cl)c1 was 3.21

The reported inhibition of the compound N#Cc1cccc(Nc2ncc(-c3ccccc3)o2)c1 was 1.14

The reported inhibition of the compound NS(=O)(=O)c1ccc(N/N=C2\C(=O)Nc3ccc(C(=O)NCc4ccncc4)cc32)cc1 was 1.92

The reported inhibition of the compound CCCNc1cccc(-n2ncc3c(N/N=C/c4ccncc4)ncnc32)c1 was -0.01

The reported inhibition of the compound COc1cc(N2CCN(C(C)C)CC2)ccc1Nc1nc(Nc2cccc(F)c2C(=O)O)c2cc[nH]c2n1 was 0.99

---

- assay_target: MAP kinase-activated protein kinase 5 (Homo sapiens) (UniProt Q8IW41)
- Sequence (Q8IW41 whole entry): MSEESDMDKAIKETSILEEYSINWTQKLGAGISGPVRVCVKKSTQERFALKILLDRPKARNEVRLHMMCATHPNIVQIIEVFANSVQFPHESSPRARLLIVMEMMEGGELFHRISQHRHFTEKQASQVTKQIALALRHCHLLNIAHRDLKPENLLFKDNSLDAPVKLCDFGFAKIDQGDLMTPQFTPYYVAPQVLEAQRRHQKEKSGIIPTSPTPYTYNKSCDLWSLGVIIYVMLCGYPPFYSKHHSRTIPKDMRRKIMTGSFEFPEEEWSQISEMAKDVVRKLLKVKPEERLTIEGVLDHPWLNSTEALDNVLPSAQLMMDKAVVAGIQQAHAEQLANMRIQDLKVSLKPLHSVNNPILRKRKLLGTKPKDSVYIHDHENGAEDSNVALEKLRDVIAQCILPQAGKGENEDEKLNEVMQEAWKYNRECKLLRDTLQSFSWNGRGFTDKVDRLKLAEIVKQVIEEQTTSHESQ
- condition_notes: at 0.1 µM
The reader will find reported inhibition values listed item by item below.
Response body: numeric value in %, unit text excluded.

{"smiles_code": "COC(=O)Nc1nc2ccc(Oc3ccc(NC(=O)Nc4cc(C(F)(F)F)ccc4F)cc3)cc2s1", "unit_annotation": "%", "inhibition": 0.07}
{"smiles_code": "Cc1cc(O)cc(C)c1/C=C/c1cncc(C(N)=O)c1", "unit_annotation": "%", "inhibition": 0.25}
{"smiles_code": "Cc1nnc(-c2cccc(-c3ccc(C(=O)NCC4CC4)cc3)c2)o1", "unit_annotation": "%", "inhibition": 2.14}
{"smiles_code": "CCN1CCC(C(=O)Nc2n[nH]c3nnc(-c4cccc(F)c4F)cc23)CC1", "unit_annotation": "%", "inhibition": 0.03}
{"smiles_code": "COc1c(C(N)=O)cc(-c2ccc(Cl)cc2)cc1-c1ccc(S(N)(=O)=O)cc1", "unit_annotation": "%", "inhibition": 1.35}
{"smiles_code": "COc1ccccc1-c1cc(/C=C2\\C(=O)Nc3ncc(Br)cc32)cc(Br)c1O", "unit_annotation": "%", "inhibition": 1.35}

The reported inhibition of the molecule CS(=O)(=O)Nc1ccc(-c2cc(-c3ccccc3)cc(C(N)=O)c2N)cc1 was 0.73

The reported inhibition of the molecule COc1cccc(Nc2nccc(-c3cnn4ncccc34)n2)c1 was 0.42

The reported inhibition of the molecule COc1cc(N2CCN(C(C)C)CC2)ccc1Nc1nc(Nc2cccc3ncccc23)c2cc[nH]c2n1 was 0.21

The reported inhibition of the molecule COc1ccc(Nc2ncc(-c3ccccc3)o2)cc1OC was -0.17

---

- assay_target: MAP kinase-activated protein kinase 5 (Homo sapiens)
- condition_notes: at 1 µM
measure_name: inhibition (%)
Response body: numeric value in %, unit text excluded.

Here are 3 compounds together with their reported answers.
{"smiles_code": "COc1cc2c(cc1Nc1nc(Nc3cccc(F)c3C(N)=O)c3cc[nH]c3n1)N(C(=O)CN1CCN(C(C)C)CC1)CC2", "unit_annotation": "%", "inhibition": 1.03}
{"smiles_code": "CN1CCC(n2cnc(-c3ccc(F)cc3)c2-c2ccnc(NCCO)n2)CC1", "unit_annotation": "%", "inhibition": 4.06}
{"smiles_code": "Fc1cccc(COc2ccc(Nc3ncncc3C#Cc3ccccc3)cc2Cl)c1", "unit_annotation": "%", "inhibition": 4.3}

The reported inhibition of the compound NC(=O)c1ccc2c(-c3ccnc(NCCCO)n3)c(-c3ccc(F)cc3)nn2c1 was 1.16

---

The reader will find reported inhibition values listed item by item below.
- System: Tyrosine-protein kinase ABL1 (Homo sapiens), P00519 [Q252H]
- condition_notes: at 0.1 µM
Give the value; after it, write the unit.

{"compound": "CCCNc1cccc(-n2ncc3c(N/N=C/c4ccncc4)ncnc32)c1", "inhibition": "35.7%"}

The reported inhibition of the compound CC1=C(C(=O)Nc2ccc3[nH]ncc3c2)C(c2ccc(F)cc2)N=C(c2ccc(C(F)(F)F)nc2)N1 (centres undefined) was 1.86%

The reported inhibition of the compound CS(=O)(=O)CCNCc1ccoc1-c1ccc2ncnc(Nc3ccc(OCc4ccccc4)cc3)c2c1 was 1.54%

The reported inhibition of the compound CC1=C(C(=O)Nc2ccc3[nH]nc(C)c3c2)C(c2ccc(C(F)(F)F)cc2)CC(=O)N1 (centres undefined) was 4.49%

The reported inhibition of the compound COc1ccc2ncn(-c3cc(O[C@H](C)c4ccccc4C(F)(F)F)c(C(N)=O)s3)c2c1 was -0.3%

The reported inhibition of the compound CCn1c(-c2nonc2N)nc2cncc(C(=O)NCCNC)c21 was 4.53%

The reported inhibition of the compound CN(c1ccc(NC(=O)NCCN2CCOCC2)cc1)c1ccnc(Nc2ccc(CS(C)(=O)=O)cc2)n1 was 8.57%

The reported inhibition of the compound CS(=O)(=O)Nc1ccc(-c2ccc3c(NC(=O)C4CC4)n[nH]c3c2)cc1 was 4.73%

The reported inhibition of the compound CCN1CCC(C(=O)Nc2n[nH]c3nnc(-c4cccc(F)c4F)cc23)CC1 was -1.28%

---

- assay_target: SRSF protein kinase 1 (Homo sapiens) (UniProt Q96SB4);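 further: values are mean percent inhibition of SRPK1 kinase, measured in the GSK PKIS screening panel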
- Sequence (Q96SB4 whole entry): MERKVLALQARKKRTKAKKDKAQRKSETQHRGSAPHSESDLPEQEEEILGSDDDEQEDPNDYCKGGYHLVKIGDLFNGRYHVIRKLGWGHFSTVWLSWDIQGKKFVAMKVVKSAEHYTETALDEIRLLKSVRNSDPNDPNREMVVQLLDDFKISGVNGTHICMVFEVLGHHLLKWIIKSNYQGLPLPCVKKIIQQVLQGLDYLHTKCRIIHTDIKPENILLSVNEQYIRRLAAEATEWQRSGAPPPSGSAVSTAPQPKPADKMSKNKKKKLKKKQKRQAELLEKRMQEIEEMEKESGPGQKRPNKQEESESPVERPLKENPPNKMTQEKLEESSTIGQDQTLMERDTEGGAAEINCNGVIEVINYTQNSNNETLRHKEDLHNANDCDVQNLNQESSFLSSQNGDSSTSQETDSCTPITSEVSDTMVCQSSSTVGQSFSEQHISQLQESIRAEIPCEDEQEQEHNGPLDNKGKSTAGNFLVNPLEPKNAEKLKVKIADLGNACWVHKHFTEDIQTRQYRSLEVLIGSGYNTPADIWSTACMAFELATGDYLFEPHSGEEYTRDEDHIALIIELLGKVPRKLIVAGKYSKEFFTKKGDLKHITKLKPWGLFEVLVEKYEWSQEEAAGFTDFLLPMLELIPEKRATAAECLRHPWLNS
- condition_notes: at 0.1 µM
measure_name: inhibition
Give the value; after it, write the unit.

{"smiles_code": "CCn1c(-c2nonc2N)nc2cncc(C(=O)NCCNC)c21", "measure_name": "inhibition", "observed_result": "-1.97%"}
{"smiles_code": "CCOc1ccc2c(-c3ccnc(Nc4cc(OC)cc(C(F)(F)F)c4)n3)cnn2n1", "measure_name": "inhibition", "observed_result": "-1.1%"}
{"smiles_code": "COc1cc(N2CCN(C(C)C)CC2)ccc1Nc1nc(Nc2cccc(F)c2C(=O)O)c2cc[nH]c2n1", "measure_name": "inhibition", "observed_result": "-1.29%"}
{"smiles_code": "CS(=O)(=O)Nc1ccc(-c2cc(-c3ccccc3)cc(C(N)=O)c2N)cc1", "measure_name": "inhibition", "observed_result": "-1.01%"}

The reported inhibition of the compound O=C(O[C@H]1CN[C@H](C#Cc2cc3ncnc(Nc4ccc(OCc5cccc(F)c5)c(Cl)c4)c3s2)C1)N1CCOCC1 was -2%

The reported inhibition of the compound Cc1cc(O)cc(C)c1/C=C/c1cncc(C(=O)OC(C)(C)C)c1 was -1.51%

The reported inhibition of the compound N#Cc1ccc2c(-c3ccnc(NC4CC4)n3)c(-c3ccc(F)cc3)nn2c1 was -1.5%

The reported inhibition of the compound NS(=O)(=O)c1cccc(N/C=C2\C(=O)Nc3ccccc32)c1 was -2.16%

The reported inhibition of the compound CS(=O)(=O)CCNCc1ccoc1-c1ccc2ncnc(Nc3ccc(OCc4ccccc4)cc3)c2c1 was -0.09%

The reported inhibition of the compound O=C(Nc1n[nH]c2nnc(-c3cccnc3)cc12)C1CC1 was -1.16%

The reported inhibition of the compound CCCNc1cccc(-n2ncc3c(N/N=C/c4ccncc4)ncnc32)c1 was 0.43%

The reported inhibition of the compound FC(F)(F)CNc1nccc(-c2cnn3ncccc23)n1 was -3.11%

---

- assay_target: Protein kinase C beta type (Homo sapiens) (UniProt P05771);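 further: measured against the PKC-beta2 splice variant, with values reported as mean percent inhibition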
- Sequence (P05771 2-671 limits assumed): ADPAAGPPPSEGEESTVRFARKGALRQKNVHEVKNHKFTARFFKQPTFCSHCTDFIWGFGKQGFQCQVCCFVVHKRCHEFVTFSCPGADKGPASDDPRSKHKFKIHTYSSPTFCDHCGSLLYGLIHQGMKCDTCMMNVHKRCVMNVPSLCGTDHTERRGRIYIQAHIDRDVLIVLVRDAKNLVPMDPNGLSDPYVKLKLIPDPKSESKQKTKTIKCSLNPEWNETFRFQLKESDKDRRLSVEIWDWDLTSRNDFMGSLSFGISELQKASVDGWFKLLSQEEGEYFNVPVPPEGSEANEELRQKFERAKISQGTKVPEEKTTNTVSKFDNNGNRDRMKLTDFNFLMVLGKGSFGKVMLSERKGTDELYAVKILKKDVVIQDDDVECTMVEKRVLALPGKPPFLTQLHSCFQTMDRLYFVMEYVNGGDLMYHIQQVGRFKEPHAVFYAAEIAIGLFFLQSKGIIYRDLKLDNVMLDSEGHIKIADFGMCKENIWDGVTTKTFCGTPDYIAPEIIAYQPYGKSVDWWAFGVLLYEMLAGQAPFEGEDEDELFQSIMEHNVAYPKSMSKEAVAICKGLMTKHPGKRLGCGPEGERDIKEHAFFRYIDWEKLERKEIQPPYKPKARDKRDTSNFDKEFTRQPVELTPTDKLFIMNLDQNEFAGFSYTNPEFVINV
- condition_notes: at 0.1 µM
- Description: GSK_PKIS: PKC-beta2 (splice variant) mean inhibition at 0.1 uM [Nanosyn]
measure_name: inhibition (%)
Response body: numeric value in %, unit text excluded.

Here are 3 molecules together with their reported answers.
{"smiles_code": "CCS(=O)(=O)c1ccc(OC)c(Nc2ncc(-c3cccc(C(C)=O)c3)o2)c1", "unit_annotation": "%", "inhibition": 1.16}
{"smiles_code": "O=C(O[C@H]1CN[C@H](C#Cc2cc3ncnc(Nc4ccc5c(ccn5Cc5cc(F)ccc5F)c4)c3s2)C1)N1CCOCC1", "unit_annotation": "%", "inhibition": 1.75}
{"smiles_code": "COc1cc(N2CCN(C(C)C)CC2)ccc1Nc1nc(Nc2cccc(F)c2C(=O)O)c2cc[nH]c2n1", "unit_annotation": "%", "inhibition": 1.66}

Now for another entry.
CS(=O)(=O)CCNCc1ccoc1-c1ccc2ncnc(Nc3ccc(OCc4ccccc4)cc3)c2c1 on Protein kinase C beta type (Homo sapiens) (UniProt P05771) gives inhibition = -0.23
